tested.system: Adrenergic receptor alpha-2 (Rattus norvegicus, UniProt P22086+P19328+P22909)
test.protocol: Binding affinity to alpha-2 adrenergic receptor by displacement of [3H]clonidine
Type: protein assay
I'd appreciate it if you marked entries Fulfilled when Ki is lower than 100 µM and Not fulfilled when it is not.

Lookup: Is 100 µM strictly greater than the compound's reported Ki? compound: FC1CNCc2ccccc2C1 (stereo unspecified)
Found: Fulfilled

Lookup: Repeat for the following compound: FC1CNCc2cc(Br)ccc2C1 (stereo unspecified)
Found: Fulfilled

Lookup: Repeat for the following compound: O=[N+]([O-])c1ccc2c(c1)CNCC2CF (stereo unspecified)
Found: Fulfilled

Lookup: Repeat for the following compound: O=[N+]([O-])c1ccc2c(c1)CNCC(F)C2 (stereo unspecified)
Found: Not fulfilled

Lookup: Repeat for the following compound: O=[N+]([O-])c1ccc2c(c1)CNCC(O)C2 (stereo unspecified)
Found: Not fulfilled
